Target: KIF18A (Homo sapiens, UniProt Q8NI77)
Sequence (Q8NI77 whole entry): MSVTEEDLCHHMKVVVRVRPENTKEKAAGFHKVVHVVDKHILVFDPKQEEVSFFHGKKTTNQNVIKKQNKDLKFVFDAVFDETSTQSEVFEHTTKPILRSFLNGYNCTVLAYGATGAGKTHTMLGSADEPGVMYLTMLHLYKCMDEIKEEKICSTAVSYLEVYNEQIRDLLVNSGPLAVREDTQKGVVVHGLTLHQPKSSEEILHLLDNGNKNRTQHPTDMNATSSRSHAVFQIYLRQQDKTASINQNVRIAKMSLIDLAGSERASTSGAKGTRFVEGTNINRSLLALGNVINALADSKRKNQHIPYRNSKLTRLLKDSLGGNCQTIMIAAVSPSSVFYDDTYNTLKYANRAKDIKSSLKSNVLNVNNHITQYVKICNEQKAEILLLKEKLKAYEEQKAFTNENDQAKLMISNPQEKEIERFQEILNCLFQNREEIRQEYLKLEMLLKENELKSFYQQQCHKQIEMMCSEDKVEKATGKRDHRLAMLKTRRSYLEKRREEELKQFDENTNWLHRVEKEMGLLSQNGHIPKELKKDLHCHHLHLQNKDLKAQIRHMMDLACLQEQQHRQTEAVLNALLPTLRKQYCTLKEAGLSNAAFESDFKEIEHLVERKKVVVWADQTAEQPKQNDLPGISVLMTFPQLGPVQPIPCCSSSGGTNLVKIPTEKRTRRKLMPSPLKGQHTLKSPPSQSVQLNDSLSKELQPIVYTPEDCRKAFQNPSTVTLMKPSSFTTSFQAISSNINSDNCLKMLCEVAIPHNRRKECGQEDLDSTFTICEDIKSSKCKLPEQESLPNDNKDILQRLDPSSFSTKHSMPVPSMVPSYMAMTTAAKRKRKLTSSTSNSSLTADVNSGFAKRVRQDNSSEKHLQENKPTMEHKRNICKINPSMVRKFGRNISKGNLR
# if measured IC50 < 20 nM: fulfilled  # else: not fulfilled

INSERT INTO results (compound, experimental_system, class_label) VALUES
  ('O=C(Nc1cccc2c1nc1n2[C@H]2CC[C@@H]1C2)c1ccc(NS(=O)(=O)CCO)cc1N1CCC2(CC1)CC2 [Compound 96a]', 'KIF18A (Homo sapiens, UniProt Q8NI77)', 'fulfilled'),
  ('O=C(Nc1cccc2c1nc1n2C2CCC1C2)c1ccc(NS(=O)(=O)CCO)cc1N1CCC2(CC1)CC2 (centres unmarked) [Compound 96]', 'KIF18A (Homo sapiens, UniProt Q8NI77)', 'fulfilled'),
  ('O=C(Nc1cccc2c1nc1n2CCCCC1)c1ccc(NS(=O)(=O)CCO)cc1N1CCC2(CC1)CC2 [Compound 97]', 'KIF18A (Homo sapiens, UniProt Q8NI77)', 'fulfilled'),
  ('COc1ccc2c(NC(=O)c3ccc(NS(=O)(=O)CCO)cc3N3CCC4(CC3)CC4)cccc2c1 [Compound 1]', 'KIF18A (Homo sapiens, UniProt Q8NI77)', 'not fulfilled'),
  ('O=C(Nc1cccc2c1nc1n2CCC1(F)F)c1ccc(NS(=O)(=O)CCO)cc1N1CCC2(CC1)CC2 [Compound 94]', 'KIF18A (Homo sapiens, UniProt Q8NI77)', 'fulfilled');
